- ASSAY: SAD study: single-dose nacubactam pharmacokinetics (plasma/urine, LC-MS/MS, noncompartmental)
- Format: in vivo
- MEASUREMENT SETUP: human, plasma, iv, 1000 mg, single i.v. dose 1,000 mg, n = 6, mean (SD)
QUANTITY KIND: Cmax (µg/mL)

NCCONC(=O)[C@@H]1CC[C@@H]2CN1C(=O)N2OS(=O)(=O)O : 72

----------
- ASSAY: SAD study: single-dose nacubactam pharmacokinetics (plasma/urine, LC-MS/MS, noncompartmental)
- Format: in vivo
- MEASUREMENT SETUP: human, plasma, iv, single i.v. dose 500 mg, n = 6, mean (SD)
QUANTITY KIND: AUC(0-inf) (ng·h/mL)

NCCONC(=O)[C@@H]1CC[C@@H]2CN1C(=O)N2OS(=O)(=O)O : 53900

----------
- ASSAY: SAD study: single-dose nacubactam pharmacokinetics (plasma/urine, LC-MS/MS, noncompartmental)
- Type: in vivo
- MEASUREMENT SETUP: human, plasma, iv, single i.v. dose 150 mg, n = 6, mean (SD)
QUANTITY KIND: Tmax (min)

NCCONC(=O)[C@@H]1CC[C@@H]2CN1C(=O)N2OS(=O)(=O)O : 30

----------
- ASSAY: SAD study: single-dose nacubactam pharmacokinetics (plasma/urine, LC-MS/MS, noncompartmental)
- Assay type: in vivo
- MEASUREMENT SETUP: human, plasma, iv, single i.v. dose 150 mg, n = 6, mean (SD)
QUANTITY KIND: AUC(0-inf) (ng·h/mL)

NCCONC(=O)[C@@H]1CC[C@@H]2CN1C(=O)N2OS(=O)(=O)O : 16300

----------
- ASSAY: MAD study: nacubactam pharmacokinetics, multiple doses and single dose alone or with meropenem
- Format: in vivo, human
- MEASUREMENT SETUP: human, plasma, intravenous, 1000 mg; MAD part 1, 1,000 mg q8h for 7 days, day 7, n = 6, median (range)
QUANTITY KIND: Tmax at 7 days (h)

NCCONC(=O)[C@@H]1CC[C@@H]2CN1C(=O)N2OS(=O)(=O)O [Nacubactam] : 1

----------
- ASSAY: SAD study: single-dose nacubactam pharmacokinetics (plasma/urine, LC-MS/MS, noncompartmental)
- Type: in vivo
- MEASUREMENT SETUP: human, plasma, iv, single i.v. dose 150 mg, n = 6, mean (SD)
QUANTITY KIND: Cmax (ng/mL)

NCCONC(=O)[C@@H]1CC[C@@H]2CN1C(=O)N2OS(=O)(=O)O : 9020

----------
- ASSAY: clinical
- MEASUREMENT SETUP: human, in vivo, CLr
- Procedure: All participants in the active group received a single 2,000-mg dose of both drugs on day 3 and q8h on days 4 to 8, with a final single dose of both drugs on the morning of day 9. A washout period of approximately 24 h between treatments was provided. Study treatments were administered as 30-min (SAD study) or 90-min (MAD study) i.v. infusions, the latter to investigate the pharmacokinetics using a longer infusion time, which is commonly used to increase the time above the MIC of β-lactams ([15]). […]
QUANTITY KIND: CL renal (mL/min)

C[C@@H](O)[C@H]1C(=O)N2C(C(=O)O)=C(S[C@@H]3CN[C@H](C(=O)N(C)C)C3)[C@H](C)[C@H]12 : 161

This collection of values is drawn from paper PMC7179653.
